Tested on: UACC-62 melanoma
ASSAY EXPLANATION: NCI tumour cell line growth inhibition, 48 h
READOUT NAME: TGI (µM)

>>> obs_value("C[C@]12CC[C@H]3[C@@H](CCC4=C[C@@H](N5CCCC5)CC[C@@]43C)[C@@H]1C/C(=C\\c1ccncc1)[C@@H]2O")
29.9
>>> obs_value("CCN(Cc1ccccn1)c1ccc(CO)c(Cl)c1")
7.83
>>> obs_value("COc1ccc2c(c1)O/C(=C\\c1ncc([N+](=O)[O-])n1C)C2=O")
2.41
>>> obs_value("O=C1OCC(C#Cc2ccccc2)=C1Br")
26.1
>>> obs_value("CC(C)CC(NC(=O)C(Cc1ccccc1)NC(=O)[C@H]1CC[C@H](NC(=O)C(Cc2ccc(OC(C)(C)C)cc2)NC(=O)OC(C)(C)C)C1)C(N)=O (stereo partly specified)")
41.8
>>> obs_value("Cc1ccc(C2C3Cc4ccccc4C3=NN2c2ccc(S(=O)(=O)NC(=O)NC3CCCCC3)cc2)cc1 (stereo unspecified)")
28.6
>>> obs_value("S=c1ssnc1-c1ccccn1")
21.1
>>> obs_value("COc1ccc(Nc2nc3cc(C(F)(F)F)ccc3n3cccc23)cc1OC")
28.9
>>> obs_value("COc1ccc(OC)c(/C=C/C(=O)N/N=C/c2ccccc2)c1")
75.8
>>> obs_value("Cc1ccc(-c2nc3nc(-c4ccc(Br)cc4)nc(N4CCCNCC4)c3o2)cc1")
31.9
>>> obs_value("O=[N+]([O-])c1cccc2nc3ccccc3c(NCCN(CCO)CCO)c12")
0.0114
>>> obs_value("O=[N+]([O-])c1ccc2sc(C=Nc3ccc(O)cc3)cc2c1")
61.9

---

Reported values of TGI for individual entries
System: HS 578T breast
ASSAY EXPLANATION: NCI tumour cell line growth inhibition, 48 h
READOUT NAME: TGI

>>> obs_value("COP(=O)(OC)/C(=C/c1cn(C(C)=O)c2ccccc12)NC(C)=O")
"> 100 µM"
>>> obs_value("CC(CO)CCNc1ncnc2c1ncn2CCC#N (stereo not drawn)")
"> 100 µM"
>>> obs_value("O=C1C(Br)=C(C2=CC(=P(c3ccccc3)(c3ccccc3)c3ccccc3)C=C2)C(=O)C(Br)=C1C1=CC(=P(c2ccccc2)(c2ccccc2)c2ccccc2)C=C1")
"> 100 µM"
>>> obs_value("Cc1ccc(NCCN(C)C)c2c(=O)c3cc(O)ccc3oc12")
"19.9 µM"
>>> obs_value("CC[C@H](C)[C@H]1NC(=O)[C@@H](NC(=O)[C@@H](CC(C)C)N(C)C(=O)C2CCCN2C(=O)[C@H](C)O)[C@@H](C)OC(=O)[C@@H]2Cc3ccccc3CN2C(=O)[C@@H]2CCCN2C(=O)[C@H](CC(C)C)NC(=O)[C@@H](C)C(=O)[C@H](C(C)C)OC(=O)C[C@@H]1O (stereo partly drawn)")
"> 38.4 µM"
>>> obs_value("O=C1OCC(C#Cc2ccccc2)=C1Br")
"19 µM"
>>> obs_value("CCOC(=O)C(Br)(C(N)=O)C1(O)OC(c2ccccc2)=C(Br)C1=O (stereo not drawn)")
"> 100 µM"
>>> obs_value("CCN(Cc1ccccn1)c1ccc(CO)c(Cl)c1")
"> 100 µM"

---

Reported TGI values follow for various compounds
System: OVCAR-3 ovarian
ASSAY EXPLANATION: NCI tumour cell line growth inhibition, 48 h
READOUT NAME: TGI (µM)

>>> obs_value("COc1cc2c(cc1O)CC[C@@H]1[C@@H]2CC[C@]2(C)[C@@H](OCCCN(C)C)CC[C@@H]12")
0.543
>>> obs_value("CC1=NN(c2cccc(Cl)c2)C2(C1=Cc1ccccc1)C(Cl)C(=O)N2c1nc2ccccc2s1 (stereo unspecified)")
40.6
>>> obs_value("CC(=O)Nc1c(Br)cc2c(c1Br)Cc1cc(Br)ccc1-2")
21.1
>>> obs_value("NCCNC1=CC(=O)c2nc3ccccc3c3ccnc1c23")
11.8
>>> obs_value("CCc1ccccc1NC(=O)C1=C(C)NC(C)=C(C(=O)Nc2c(CC)cccc2CC)C1c1ccc2c(c1)OCO2 (stereo unspecified)")
38.4
>>> obs_value("COC(=O)[C@]1(c2cc3ccccc3[nH]2)CC2CN(C(=O)OCc3ccccc3)C1C=C2OC (stereo partly specified)")
91.4
>>> obs_value("CCOC(=O)CCC(NC(=O)c1ccc(Sc2nc3cc(N)cc(N)c3nc2-c2ccccc2)cc1)C(=O)OCC (stereo unspecified)")
2.88
>>> obs_value("O=C(/C=C\\Sc1ccccn1)c1cccc(Br)c1")
24.2
>>> obs_value("COP(=O)(OC)/C(=C/c1cn(C(C)=O)c2ccccc12)NC(C)=O")
66.2
>>> obs_value("CCOC(=O)C1=C(C)NC(C)=C(C(=O)OCC)C1c1ccc(Cl)cc1")
30.5
